- target-desc: TBK1 (human) (UniProt Q9UHD2)
- Sequence (Q9UHD2 whole entry, looked up): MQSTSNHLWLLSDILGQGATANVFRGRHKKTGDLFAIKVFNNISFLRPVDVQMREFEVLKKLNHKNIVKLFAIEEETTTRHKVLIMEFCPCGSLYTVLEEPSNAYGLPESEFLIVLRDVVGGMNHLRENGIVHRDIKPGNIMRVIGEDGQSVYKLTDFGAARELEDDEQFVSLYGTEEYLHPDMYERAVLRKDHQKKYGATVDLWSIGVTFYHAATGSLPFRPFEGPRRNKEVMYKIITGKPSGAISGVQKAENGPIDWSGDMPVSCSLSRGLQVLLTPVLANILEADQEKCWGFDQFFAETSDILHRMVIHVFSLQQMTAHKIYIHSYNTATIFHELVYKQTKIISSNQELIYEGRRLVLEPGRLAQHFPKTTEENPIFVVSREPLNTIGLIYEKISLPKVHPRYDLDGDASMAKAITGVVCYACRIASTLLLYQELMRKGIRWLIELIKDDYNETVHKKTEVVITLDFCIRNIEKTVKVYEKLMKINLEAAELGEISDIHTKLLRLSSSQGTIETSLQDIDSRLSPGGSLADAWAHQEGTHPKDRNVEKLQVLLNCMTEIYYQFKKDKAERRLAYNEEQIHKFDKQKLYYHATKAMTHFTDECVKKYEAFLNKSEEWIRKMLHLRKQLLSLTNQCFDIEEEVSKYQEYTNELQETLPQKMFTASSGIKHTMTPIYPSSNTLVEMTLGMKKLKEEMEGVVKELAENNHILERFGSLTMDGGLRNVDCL
- assay: radiometric filter-binding kinase assay, Kinase HotSpot
- setup-conditions: compound 0.5 µM; ATP 10 µM
property-measured: residual activity (%)
Quick note: give the figure in %, leave out the unit.

mol=O=C1NC(=O)c2c1c1c3ccccc3[nH]c1n1cncc21 unit_descriptor=% value_observed=81.9

Enter reported residual activity observed with TBK1 (human) (UniProt Q9UHD2) for CS(=O)(=O)CCNCc1ccc(-c2ccc3ncnc(Nc4ccc(OCc5cccc(F)c5)c(Cl)c4)c3c2)o1
103

Enter reported residual activity observed with TBK1 (human) (UniProt Q9UHD2) for CC(C)(C)c1cc(C=C(C#N)C#N)cc(Br)c1O
90.2

Enter reported residual activity observed with TBK1 (human) (UniProt Q9UHD2) for N#Cc1c[nH]c2c[nH]/c(=N\Cc3cccnc3)cc2/c1=N\c1ccc(F)c(Cl)c1
83.4
